The reported numbers originate from patent US5373020A.

# system: β3-receptors (Rattus norvegicus, UniProt P26255)
# Construct: Rat epididymal fat pads were excised and placed in 0.9% saline; from tissue; host or cells: collagenase-isolated adipocytes from rat epididymal fat pads
# Sequence (P26255 whole entry): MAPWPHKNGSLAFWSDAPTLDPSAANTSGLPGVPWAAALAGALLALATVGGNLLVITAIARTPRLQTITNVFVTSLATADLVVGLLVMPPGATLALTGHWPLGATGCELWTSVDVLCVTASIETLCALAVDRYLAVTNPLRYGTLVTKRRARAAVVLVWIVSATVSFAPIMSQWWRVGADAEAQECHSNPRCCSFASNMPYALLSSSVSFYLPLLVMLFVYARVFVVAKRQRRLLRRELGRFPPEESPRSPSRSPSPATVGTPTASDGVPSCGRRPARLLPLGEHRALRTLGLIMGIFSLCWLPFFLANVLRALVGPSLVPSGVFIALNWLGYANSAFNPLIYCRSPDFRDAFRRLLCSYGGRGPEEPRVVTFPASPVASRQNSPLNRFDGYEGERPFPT
# assay.summary: Stimulation of adipocyte lipolysis (β3-effect)
# Format: cell-based
attribute.measured: EC50
Answer with the number, then the unit.

The observed EC50 for COC(=O)COc1ccc(C[C@@H](C)NC[C@H](O)c2ccc(Cl)cc2)cc1 (relative stereo) [BRL1, reference compound] when tested with β3-receptors (Rattus norvegicus, UniProt P26255) stands at 0.013 µM

---

# Test system: ob/ob mice
# assay.summary: Plasma glucose, compound in chow, obese mice
# Type: in vivo, mouse (C57 B1/6J ob/ob)
# measurement.conditions: dose 0.005 % wt of chow, week 1
Where a name gives a salt, the structure may show the parent alone.
Give Plasma Glucose Levels for every item shown.
Please respond with the number in mg/100 ml and leave the unit unwritten.

The reported value for C[C@@H](Cc1ccc2c(c1)OCO2)NC[C@H](O)c1cccc(Cl)c1 (relative stereo) [reference compound] in terms of Plasma Glucose Levels is 176

The reported value for C[C@H](Cc1ccc2c(c1)OC(C(=O)[O-])(C(=O)[O-])O2)NC[C@H](O)c1cccc(Cl)c1.[Na+].[Na+] (stereo in doubt) in terms of Plasma Glucose Levels is 145

The reported value for COC(=O)COc1ccc(C[C@@H](C)NC[C@H](O)c2ccc(Cl)cc2)cc1 (relative stereo) [BRL1, reference compound] in terms of Plasma Glucose Levels is 137

The reported value for C[C@H](Cc1ccc2c(c1)OCO2)NC[C@H](O)c1cccc(Cl)c1 (racemic) [reference compound] in terms of Plasma Glucose Levels is 175

The reported value for COC(=O)C1(C(=O)OC)Oc2ccc(C[C@@H](C)NC[C@H](O)c3cccc(Cl)c3)cc2O1 (stereo in doubt) [CL1, hydrobromide] in terms of Plasma Glucose Levels is 143

---

# system: β2-receptors (Mus musculus, UniProt P18762)
# Construct: Soleus muscle from mice were dissected
# Sequence (P18762 whole entry): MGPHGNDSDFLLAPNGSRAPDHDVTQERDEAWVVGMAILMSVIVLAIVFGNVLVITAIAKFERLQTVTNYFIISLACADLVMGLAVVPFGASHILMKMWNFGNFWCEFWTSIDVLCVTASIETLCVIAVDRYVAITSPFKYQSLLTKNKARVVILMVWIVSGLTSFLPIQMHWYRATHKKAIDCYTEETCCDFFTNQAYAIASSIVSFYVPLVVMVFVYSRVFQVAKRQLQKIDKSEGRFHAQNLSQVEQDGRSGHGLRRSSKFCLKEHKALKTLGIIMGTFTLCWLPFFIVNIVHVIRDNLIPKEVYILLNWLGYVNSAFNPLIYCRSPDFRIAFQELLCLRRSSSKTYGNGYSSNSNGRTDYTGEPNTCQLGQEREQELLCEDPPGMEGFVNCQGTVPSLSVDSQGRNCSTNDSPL
# assay.summary: Inhibition of insulin-mediated incorporation of 14C-glucose into glycogen in isolated soleus muscle (β2-effect)
Where a name gives a salt, the structure may show the parent alone.
attribute.measured: pEC50
Remember, pEC50 is on a log scale: it is -log10 of the molar concentration.

The reported value for C[C@H](Cc1ccc(OCC(=O)[O-])cc1)NC[C@H](O)c1cccc(Cl)c1.[Na+] (relative stereo) [BRL2, monosodium salt] in terms of pEC50 is 6.10

The reported value for COC(=O)C1(C(=O)OC)Oc2ccc(C[C@@H](C)NC[C@H](O)c3cccc(Cl)c3)cc2O1 (stereo in doubt) [CL1, hydrobromide] in terms of pEC50 is 6.10

The reported value for COC(=O)COc1ccc(C[C@@H](C)NC[C@H](O)c2ccc(Cl)cc2)cc1 (relative stereo) [BRL1, reference compound] in terms of pEC50 is 6.92

---

# system: β1-receptors (Cavia porcellus, UniProt H0W3H1)
# Sequence (H0W3H1 1-470): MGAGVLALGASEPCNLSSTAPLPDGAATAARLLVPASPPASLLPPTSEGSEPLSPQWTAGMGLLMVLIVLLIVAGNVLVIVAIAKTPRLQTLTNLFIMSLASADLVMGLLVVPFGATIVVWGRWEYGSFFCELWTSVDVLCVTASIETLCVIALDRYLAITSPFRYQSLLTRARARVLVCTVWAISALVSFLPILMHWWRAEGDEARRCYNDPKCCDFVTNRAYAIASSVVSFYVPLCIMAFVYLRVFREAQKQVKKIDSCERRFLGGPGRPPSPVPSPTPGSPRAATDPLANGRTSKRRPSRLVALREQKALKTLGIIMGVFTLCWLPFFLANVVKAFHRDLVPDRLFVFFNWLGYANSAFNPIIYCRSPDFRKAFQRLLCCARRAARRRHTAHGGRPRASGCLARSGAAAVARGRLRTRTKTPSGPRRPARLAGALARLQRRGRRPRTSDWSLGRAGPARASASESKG
# assay.summary: Effect on heart rate of isolated right atria (β1-effect)
Structures can show the parent of a compound that is named as a salt.
attribute.measured: pEC50
Remember, pEC50 is on a log scale: it is -log10 of the molar concentration.

The reported value for C[C@H](Cc1ccc(OCC(=O)[O-])cc1)NC[C@H](O)c1cccc(Cl)c1.[Na+] (relative stereo) [BRL2, monosodium salt] in terms of pEC50 is 5.25

The reported value for COC(=O)COc1ccc(C[C@@H](C)NC[C@H](O)c2ccc(Cl)cc2)cc1 (relative stereo) [BRL1, reference compound] in terms of pEC50 is 6.70

The reported value for COC(=O)C1(C(=O)OC)Oc2ccc(C[C@@H](C)NC[C@H](O)c3cccc(Cl)c3)cc2O1 (stereo in doubt) [CL1, hydrobromide] in terms of pEC50 is 7.85
